testedOn: sEGFR-MMB (human)
Sequence (chain, as listed by the source limits assumed): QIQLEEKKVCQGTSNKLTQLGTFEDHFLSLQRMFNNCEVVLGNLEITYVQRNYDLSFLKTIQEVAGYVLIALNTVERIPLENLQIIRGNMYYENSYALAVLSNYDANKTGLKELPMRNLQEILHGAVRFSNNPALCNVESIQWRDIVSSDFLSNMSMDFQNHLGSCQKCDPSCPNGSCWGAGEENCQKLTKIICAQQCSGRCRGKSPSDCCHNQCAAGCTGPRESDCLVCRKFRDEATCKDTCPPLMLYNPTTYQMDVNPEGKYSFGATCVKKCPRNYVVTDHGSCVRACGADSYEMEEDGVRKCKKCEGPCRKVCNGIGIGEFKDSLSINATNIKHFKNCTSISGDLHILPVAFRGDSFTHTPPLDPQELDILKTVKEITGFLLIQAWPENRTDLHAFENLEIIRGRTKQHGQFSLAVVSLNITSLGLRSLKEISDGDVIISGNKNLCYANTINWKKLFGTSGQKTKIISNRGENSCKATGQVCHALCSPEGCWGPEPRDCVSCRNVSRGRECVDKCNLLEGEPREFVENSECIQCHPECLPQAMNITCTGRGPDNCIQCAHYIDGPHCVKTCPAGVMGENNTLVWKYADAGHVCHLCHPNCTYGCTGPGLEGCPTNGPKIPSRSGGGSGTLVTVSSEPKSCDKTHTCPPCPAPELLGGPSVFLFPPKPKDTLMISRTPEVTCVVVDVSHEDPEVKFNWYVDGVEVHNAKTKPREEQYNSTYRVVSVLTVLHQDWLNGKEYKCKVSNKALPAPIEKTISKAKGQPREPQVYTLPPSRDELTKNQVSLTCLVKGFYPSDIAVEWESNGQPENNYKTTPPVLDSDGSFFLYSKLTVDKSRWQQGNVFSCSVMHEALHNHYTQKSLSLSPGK
method: phage ELISA on coated sEGFR-MMB, chemiluminescence (background typically <200 units)
As shown below, each of these binders has a reported ELISA value.
Report only the number, with the unit units understood.

Here's what some known entries look like.
>  <binder>
STITSLPTLQCWPIL [S15 library phage peptide of SEQ ID NO: 16]

>  <ELISA (units)>
13300

$$$$
>  <binder>
LPDLICAVDSGTSGA [S15 library phage peptide of SEQ ID NO: 21]

>  <ELISA (units)>
1160

$$$$
>  <binder>
PIFSSLPVLYCTSQL [S15 library phage peptide of SEQ ID NO: 18]

>  <ELISA (units)>
1420

$$$$
>  <binder>
VSGILPILVCHPAAT [S15 library phage peptide of SEQ ID NO: 12]

>  <ELISA (units)>
1110

$$$$
>  <binder>
LPDDSLPELICKVRG [P175]

>  <ELISA (units)>
6790

$$$$
>  <binder>
HVSLQSLPELICVVS [S15 library phage peptide of SEQ ID NO: 14]

>  <ELISA (units)>
1360

$$$$

Bench note: what ELISA did ELGLPTLLCWPTDTL [S15 library phage peptide of SEQ ID NO: 11] show?
9380

Field request: ELISA | item: PIDDESLPVLYCVTS [S15 library phage peptide of SEQ ID NO: 17]
1780

Sample GADTLPDLLCWESSL [S15 library phage peptide of SEQ ID NO: 19] — what was its ELISA?
5720

So what's the measured ELISA for this one? NWFSLPTLLCFPLNP [S15 library phage peptide of SEQ ID NO: 15]
3670

Endpoint output: ELISA of YRLFVDESIFFCTRL [S15 library phage peptide of SEQ ID NO: 10] . Value?
3080

So what does the record say about ELISA for TVFTLPELVCVVAGT [S15 library phage peptide of SEQ ID NO: 20] ?
1520
